Consider the following molecules; for each one, report its viability, T/C.
tested on: 695427-040-R-J1-PDC complex spheroids, viability percent T/C; test: Anticancer human tumor 695427-040-R-J1-PDC patient-derived colon adenocarcinoma cell line growth inhibition [GQUAD]; conditions: second compound 1 µM; first compound 0.316 µM; stronger effect = lower value;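 also: spheroids exposed to compounds for seven days before readout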

Guide cases for viability, T/C, answers given:
Molecule | Target or test system | Result value
O=C(c1cc(Cc2n[nH]c(=O)c3ccccc23)ccc1F)N1CCN(C(=O)C2CC2)CC1 + Cc1[nH]c2ccc(F)cc2c1-c1nc2c3cccnc3c3ncccc3c2[nH]1 | 695427-040-R-J1-PDC complex spheroids, viability percent T/C | 73.1%
CC(C)n1c(=O)n(C)c2cnc3cc(F)c(-c4ccc(OCCCN5CCCCC5)nc4)cc3c21 + CN(C)c1ccc(Nc2c3ccc(NC(=O)CCN4CCCC4)cc3nc3cc(NC(=O)CCN4CCCC4)ccc23)cc1 | 695427-040-R-J1-PDC complex spheroids, viability percent T/C | 110%
Cc1[nH]c2ccccc2c1CCNCc1ccc(/C=C/C(=O)NO)cc1 + CN(C)c1ccc(Nc2c3ccc(NC(=O)CCN4CCCC4)cc3nc3cc(NC(=O)CCN4CCCC4)ccc23)cc1 | 695427-040-R-J1-PDC complex spheroids, viability percent T/C | 68%
CC1COCCN1c1cc(C2(S(C)(=N)=O)CC2)nc(-c2ccnc3[nH]ccc23)n1 (configuration not stated) + Cc1[nH]c2ccc(F)cc2c1-c1nc2c3cccnc3c3ncccc3c2[nH]1 | 695427-040-R-J1-PDC complex spheroids, viability percent T/C | 70.3%
CCc1c2c(nc3ccc(O)cc13)-c1cc3c(c(=O)n1C2)COC(=O)[C@]3(O)CC + Cc1cnc(CNC(=O)c2c(=O)c3ccc(N4CCCN(C)CC4)nc3n3c2sc2ccccc23)cn1 | 695427-040-R-J1-PDC complex spheroids, viability percent T/C | 19.1%
Cn1ncnc1[C@H]1c2n[nH]c(=O)c3cc(F)cc(c23)N[C@@H]1c1ccc(F)cc1 + Cc1[nH]c2ccc(F)cc2c1-c1nc2c3cccnc3c3ncccc3c2[nH]1 | 695427-040-R-J1-PDC complex spheroids, viability percent T/C | 68.2%

Give viability, T/C for each of the items listed below.
1. O=C(NO)c1cnc(N2CCN(S(=O)(=O)c3ccc4ccccc4c3)CC2)nc1 + Cc1[nH]c2ccc(F)cc2c1-c1nc2c3cccnc3c3ncccc3c2[nH]1
2. CC1COCCN1c1cc(-c2ccnn2C)c2ccnc(-c3ccn[nH]3)c2n1 (configuration not stated) + Cc1cnc(CNC(=O)c2c(=O)c3ccc(N4CCCN(C)CC4)nc3n3c2sc2ccccc23)cn1
3. Nc1ccn(C2OC(CO)C(O)C2(F)F)c(=O)n1 (configuration not stated) + Cc1[nH]c2ccc(F)cc2c1-c1nc2c3cccnc3c3ncccc3c2[nH]1
4. CC1COCCN1c1cc(-c2ccnn2C)c2ccnc(-c3ccn[nH]3)c2n1 (configuration not stated) + CN(C)c1ccc(Nc2c3ccc(NC(=O)CCN4CCCC4)cc3nc3cc(NC(=O)CCN4CCCC4)ccc23)cc1
5. CCCS(=O)(=O)Nc1ccc(F)c(C(=O)c2c[nH]c3ncc(-c4ccc(Cl)cc4)cc23)c1F + Cc1[nH]c2ccc(F)cc2c1-c1nc2c3cccnc3c3ncccc3c2[nH]1
6. CCc1c2c(nc3ccc(O)cc13)-c1cc3c(c(=O)n1C2)COC(=O)[C@]3(O)CC + Cc1[nH]c2ccc(F)cc2c1-c1nc2c3cccnc3c3ncccc3c2[nH]1

Given back:
84.8%
34.1%
59.2%
60.3%
85.3%
37.6%

Give viability, T/C for each of the items listed below.
1. COc1cc(C2c3cc4c(cc3C(OC3OC5COC(C)OC5C(O)C3O)C3COC(=O)C23)OCO4)cc(OC)c1O (configuration not stated) + Cc1[nH]c2ccc(F)cc2c1-c1nc2c3cccnc3c3ncccc3c2[nH]1
2. Cn1ncnc1[C@H]1c2n[nH]c(=O)c3cc(F)cc(c23)N[C@@H]1c1ccc(F)cc1 + Cc1cnc(CNC(=O)c2c(=O)c3ccc(N4CCCN(C)CC4)nc3n3c2sc2ccccc23)cn1

Given back:
1: 90.5%; 2: 56.5%

Give viability, T/C for each of the items listed below.
1. Cc1[nH]c2ccccc2c1CCNCc1ccc(/C=C/C(=O)NO)cc1 + Cc1[nH]c2ccc(F)cc2c1-c1nc2c3cccnc3c3ncccc3c2[nH]1
2. C=CCn1c(=O)c2cnc(Nc3ccc(N4CCN(C)CC4)cc3)nc2n1-c1cccc(C(C)(C)O)n1 + CN(C)c1ccc(Nc2c3ccc(NC(=O)CCN4CCCC4)cc3nc3cc(NC(=O)CCN4CCCC4)ccc23)cc1

Given back:
1: 90.8%; 2: 81.9%

Give viability, T/C for each of the items listed below.
1. CC1COCCN1c1cc(C2(S(C)(=N)=O)CC2)nc(-c2ccnc3[nH]ccc23)n1 (configuration not stated) + CN(C)c1ccc(Nc2c3ccc(NC(=O)CCN4CCCC4)cc3nc3cc(NC(=O)CCN4CCCC4)ccc23)cc1
2. COc1ncnc(C2CC2)c1-c1ncc2cnn(Cc3ccc(-c4nc(C(F)(F)F)cn4C(C)C)cc3)c2n1 + Cc1cnc(CNC(=O)c2c(=O)c3ccc(N4CCCN(C)CC4)nc3n3c2sc2ccccc23)cn1
3. C=CCn1c(=O)c2cnc(Nc3ccc(N4CCN(C)CC4)cc3)nc2n1-c1cccc(C(C)(C)O)n1 + Cc1cnc(CNC(=O)c2c(=O)c3ccc(N4CCCN(C)CC4)nc3n3c2sc2ccccc23)cn1
4. CC1COCCN1c1cc(C2(S(C)(=N)=O)CC2)nc(-c2ccnc3[nH]ccc23)n1 (configuration not stated) + Cc1cnc(CNC(=O)c2c(=O)c3ccc(N4CCCN(C)CC4)nc3n3c2sc2ccccc23)cn1

Given back:
1. 100%
2. 70%
3. 62%
4. 59.7%

Give viability, T/C for each of the items listed below.
1. COc1ccc([C@@H](O)c2cc(-c3ncnc4cc(N5CCOCC5)ccc34)c(F)cc2Cl)nn1 + Cc1cnc(CNC(=O)c2c(=O)c3ccc(N4CCCN(C)CC4)nc3n3c2sc2ccccc23)cn1
2. O=c1[nH]cc(F)c(=O)[nH]1 + CN(C)c1ccc(Nc2c3ccc(NC(=O)CCN4CCCC4)cc3nc3cc(NC(=O)CCN4CCCC4)ccc23)cc1

Given back:
60.9%
98%
